# System Name: T1, SARS-CoV-2 RBD-mFc (SARS-CoV-2, UniProt P0DTC2 319-541)
# T1 construct: range 319-541
# Assay: flow cytometry competition: RBD-mFc on HEK293E/ACE2 cells
Please respond with reported pIC50 for every item in the list.
Numbers only, as −log10 of the molar value.

The cases that follow already have their pIC50 on record.
Binder	Measurement Name	Result
SA4086 (antibody, V domains shown) VH: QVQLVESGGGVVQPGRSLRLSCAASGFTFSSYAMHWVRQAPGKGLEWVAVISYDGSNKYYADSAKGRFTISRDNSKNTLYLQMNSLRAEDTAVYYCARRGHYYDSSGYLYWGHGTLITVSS VL: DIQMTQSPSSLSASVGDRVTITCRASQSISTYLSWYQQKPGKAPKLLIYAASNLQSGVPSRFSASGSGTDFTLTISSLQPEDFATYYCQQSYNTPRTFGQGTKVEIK	pIC50	8.61
SA3838 (antibody, V domains shown) VH: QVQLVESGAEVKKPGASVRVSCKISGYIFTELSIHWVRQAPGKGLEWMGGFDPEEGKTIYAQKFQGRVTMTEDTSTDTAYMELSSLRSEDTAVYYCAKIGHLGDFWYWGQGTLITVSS VL: QSALTQPASVSGSPGQSITISCTGTTSDIGSYDYVSWYQQHPGKAPKLIIYGVTRRPSGVSNRFSGSKSGNTASLTISRLLTEDEAEYYCATYTSSATYVFGTGTKVTVL	pIC50	8.52

Could you now consider this next binder?
pIC50 reported for this binder SA3755 (antibody, V domains shown) VH: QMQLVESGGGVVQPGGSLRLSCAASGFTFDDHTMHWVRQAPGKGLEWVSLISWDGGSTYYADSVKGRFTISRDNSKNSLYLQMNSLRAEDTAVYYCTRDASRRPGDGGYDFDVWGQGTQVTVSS VL: QAVVTQEPSLTVSPGGTVTLTCGSSTGTVTRGHWPYWFQQKPGQAPRTLIYDTDNKHSWTPARFSGSLLGGKAALTLSGAQPEDEADYYCLLSYSDSRVFGTGTKVTVL : 8.51
